Cited source for all entries: ChEMBL document CHEMBL5728527

Biological target: Mitogen-activated protein kinase kinase kinase kinase 1 (Homo sapiens, UniProt Q92918)
Sequence (Q92918 whole entry): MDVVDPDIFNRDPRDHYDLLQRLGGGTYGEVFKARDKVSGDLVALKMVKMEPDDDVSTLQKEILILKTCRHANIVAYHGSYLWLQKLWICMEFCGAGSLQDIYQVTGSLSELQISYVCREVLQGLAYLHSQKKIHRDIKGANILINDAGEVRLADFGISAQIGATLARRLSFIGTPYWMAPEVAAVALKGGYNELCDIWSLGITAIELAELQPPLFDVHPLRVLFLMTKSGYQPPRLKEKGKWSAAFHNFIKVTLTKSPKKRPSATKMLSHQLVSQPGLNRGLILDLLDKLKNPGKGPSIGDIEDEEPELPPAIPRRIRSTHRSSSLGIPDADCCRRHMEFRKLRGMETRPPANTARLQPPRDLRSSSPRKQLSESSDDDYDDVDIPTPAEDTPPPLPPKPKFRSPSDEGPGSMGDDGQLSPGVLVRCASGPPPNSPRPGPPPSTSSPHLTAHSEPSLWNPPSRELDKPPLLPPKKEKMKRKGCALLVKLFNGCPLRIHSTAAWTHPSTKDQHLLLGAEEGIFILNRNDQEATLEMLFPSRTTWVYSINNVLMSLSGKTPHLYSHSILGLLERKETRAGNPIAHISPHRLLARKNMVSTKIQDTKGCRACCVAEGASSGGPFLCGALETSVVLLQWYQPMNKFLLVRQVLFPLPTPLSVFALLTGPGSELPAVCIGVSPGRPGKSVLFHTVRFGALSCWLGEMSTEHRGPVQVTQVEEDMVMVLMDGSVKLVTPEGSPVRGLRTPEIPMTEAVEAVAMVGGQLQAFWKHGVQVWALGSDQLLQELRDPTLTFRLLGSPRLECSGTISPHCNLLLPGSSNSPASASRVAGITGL
Experiment: Binding Assay: Lanth: For the binding assay, 4 ul 2×HPK1 and Eu-anti-GST antibody were added to each well of the assay plate using a Multidrop reagent dispenser. The solutions were incubated in a 23 C incubator for 1 h. To each well of the assay plate was added 4 ul 2× Tracer-222 using a Multidrop reagent dispenser. The solutions were again incubated in a 23 C incubator for 1 h. The results of the assay were read using an Envision plate reader with the following parameters: TR_FRET, 340ex/615 and 665em; 100 usec Delay; and 200 usec integration.
PROPERTY MEASURED: Ki (nM)

These recorded examples may help you get a feel for the data.
[[record]]
compound = "Cc1c(-c2cc3cc(NC(=O)[C@H]4C[C@@H]4C#N)ncc3c(N)n2)cncc1C(F)F (racemic)"
endpoint_value = 39

[[record]]
compound = "Nc1nc(-c2cncc3c2OCC(=O)N3)cc2cc(NC(=O)[C@@H]3C[C@@H]3F)ncc12 (racemic)"
endpoint_value = 1.77

[[record]]
compound = "CCc1ccncc1-c1cc2cc(NC(=O)[C@@H]3C[C@H]3C#N)ncc2c(N)n1 (single isomer, unassigned)"
endpoint_value = 7.36

[[record]]
compound = "Cc1nn(C)c(C)c1-c1cc2cc(NC(=O)[C@H]3C[C@@H]3C(F)(F)F)ncc2c(N)n1 (racemic)"
endpoint_value = 12

[[record]]
compound = "CCc1cc(OC)ncc1-c1cc2cc(NC(=O)[C@@H]3C[C@@H]3F)ncc2c(N)n1 (racemic)"
endpoint_value = 4.88

[[record]]
compound = "COC(=O)c1cc(C)c(-c2cc3cc(NC(=O)[C@H]4C[C@@H]4c4cnn(C)c4)ncc3c(N)n2)cn1"
endpoint_value = 0.509


[1] Cc1ccncc1-c1nc(N)c2cnc(NC(=O)[C@@H]3C[C@H]3c3cn[nH]c3)cc2c1Cl (racemic)
[2] Cc1ccncc1-c1cc2cc(NC(=O)[C@@H]3C[C@H]3C#N)ncc2c(N)n1 (single isomer, unassigned)
Lowest Ki? choose 1 or 2 Answer with the label corresponding to your selection. 1
(1: 0.047 nM, 2: 4.06 nM)

[A] Cc1ccncc1-c1cc2cc(NC(=O)[C@H]3[C@@H]4CC(N5CCOCC5)C[C@@H]43)ncc2c(N)n1 (stereo partly specified)
[B] Cc1ccnc(C)c1-c1cc2cc(NC(=O)[C@@H]3C[C@@H]3F)ncc2c(N)n1 (racemic)
[C] Cn1cc([C@H]2C[C@@H]2C(=O)Nc2cc3cc(-c4cnc(N)c(C(F)(F)F)c4)nc(N)c3cn2)cn1 (racemic)
Sort low-to-high on Ki, please. Reply with the labels, ordered as the question asks. A, B, C
(A: 0.972 nM, B: 5.03 nM, C: 11.8 nM)

[1] Cc1ccncc1-c1cc2cc(NC(=O)[C@@H]3C[C@@H]3C)ncc2c(N)n1 (racemic)
[2] Cc1cc(C(=O)NCC(F)(F)F)ccc1-c1cc2cc(NC(=O)[C@@H]3C[C@H]3C#N)ncc2c(N)n1 (relative stereo)
Please tell me which of the two, 1 or 2 , has the higher reported Ki value. Answer with the label corresponding to your selection. 2
(2: 8.1 nM, 1: 2.3 nM)

[1] Cc1ccncc1-c1cc2cc(NC(=O)[C@@H]3C[C@H]3CN)ncc2c(N)n1 (racemic)
[2] Cc1ccncc1-c1cc2cc(NC(=O)[C@@H]3C[C@H]3c3cnsc3)ncc2c(N)n1 (racemic)
Please tell me which of the two, 1 or 2 , has the higher reported Ki value. Answer with the label corresponding to your selection. 1
